This collection of values is drawn from paper PMC3563628.

Target: T1, DFNB31_1/R144E (with Y167W) (human, UniProt Q9P202 136-224, R144E | Y167W)
T1 construct: first PDZ domain of human DFNB31 (whirlin); predicted PDZ domain with ten amino acids added on each side
T1 sequence: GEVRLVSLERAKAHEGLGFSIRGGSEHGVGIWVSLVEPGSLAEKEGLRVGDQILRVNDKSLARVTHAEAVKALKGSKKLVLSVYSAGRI
Assay: other fluorescence titration; equilibrium titration of peptide into Trp-engineered PDZ domain kept constant at 3 µM, followed by intrinsic tryptophan fluorescence; 25°C, 25 mM HEPES, 150 mM NaCl, pH 7.2, 1 mM beta-mercaptoethanol
Conditions: both partners purified
pKd: −log10 of the molar value.
MEASURE_NAME: pKd

- FTDTHL (last six residues; also called FTDTHL peptide; source: synthetic peptide, bought: GeneCust (purity >95%)) [C-terminal peptide of usher (FTDTHL)]: 4.09
